Molecular target: human CD3 (UniProt P07766 22-207)
Sequence (P07766 22-207): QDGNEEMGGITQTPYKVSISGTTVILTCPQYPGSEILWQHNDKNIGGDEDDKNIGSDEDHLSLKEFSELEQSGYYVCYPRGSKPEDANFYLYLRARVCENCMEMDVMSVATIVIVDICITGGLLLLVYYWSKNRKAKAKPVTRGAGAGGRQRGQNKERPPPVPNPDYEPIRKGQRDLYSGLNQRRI
Test: FACS binding, Jurkat cells
Test readout: EC50 (µg/mL)
Field: numeric (µg/mL). Do not append units.

1. IgG1-huCD3-H1L3-LFLEDA (antibody, V domains shown) VH: EVKLVESGGGLVQPGGSLRLSCAASGFTFNTYAMNWVRQAPGKGLEWVARIRSKYNNYATYYADSVKDRFTISRDDSKSSLYLQMNNLKTEDTAMYYCVRHGNFGNSYVSWFAYWGQGTLVTVSS VL: QAVVTQEPSFSVSPGGTVTLTCRSSTGAVTTSNYANWVQQTPGQAFRGLIGGTNKRAPGVPARFSGSILGNKAALTITGAQADDESDYYCALWYSNLWVFGGGTKLTVL | 0.11

Form: binder = IgG1-huCD3-H4L3-LFLEDA (antibody, V domains shown) VH: EVKLVESGGGLVKPGRSLRLSCAASGFTFNTYAMNWVRQAPGKGLEWVARIRSKYNNYATYYADSVKDRFTISRDDSKSILYLQMNSLKTEDTAMYYCVRHGNFGNSYVSWFAYWGQGTMVTVSS VL: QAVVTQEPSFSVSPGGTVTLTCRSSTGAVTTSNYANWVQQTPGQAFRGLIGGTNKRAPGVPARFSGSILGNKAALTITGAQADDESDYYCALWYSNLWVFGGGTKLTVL ; EC50 = 0.08

The binder IgG1-CD3-LFLEDA (antibody, V domains shown) VH: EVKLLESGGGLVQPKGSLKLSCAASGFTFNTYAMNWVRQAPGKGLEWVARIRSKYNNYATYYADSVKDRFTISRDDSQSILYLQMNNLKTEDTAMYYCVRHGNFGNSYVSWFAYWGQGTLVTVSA VL: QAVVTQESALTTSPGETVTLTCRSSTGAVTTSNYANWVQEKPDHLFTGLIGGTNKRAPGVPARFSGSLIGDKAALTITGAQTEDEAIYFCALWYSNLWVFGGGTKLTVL showed EC50 equal to 0.27

Looking up IgG1-huCD3-H3L3-LFLEDA (antibody, V domains shown) VH: EVKLVESGGGLVKPGRSLRLSCAASGFTFNTYAMNWVRQAPGKGLEWVARIRSKYNNYATYYADSVKDRFTISRDDSKSILYLQMNSLKTEDTAMYYCVRHGNFGNSYVSWFAYWGQGTLVTVSS VL: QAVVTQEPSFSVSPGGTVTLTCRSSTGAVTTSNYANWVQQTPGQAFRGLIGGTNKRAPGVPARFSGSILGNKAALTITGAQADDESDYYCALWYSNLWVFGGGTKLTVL , I found its EC50 recorded as 0.08
